target.entity: Thromboxane A2 receptor (Homo sapiens, UniProt P21731)
Sequence (P21731 whole entry): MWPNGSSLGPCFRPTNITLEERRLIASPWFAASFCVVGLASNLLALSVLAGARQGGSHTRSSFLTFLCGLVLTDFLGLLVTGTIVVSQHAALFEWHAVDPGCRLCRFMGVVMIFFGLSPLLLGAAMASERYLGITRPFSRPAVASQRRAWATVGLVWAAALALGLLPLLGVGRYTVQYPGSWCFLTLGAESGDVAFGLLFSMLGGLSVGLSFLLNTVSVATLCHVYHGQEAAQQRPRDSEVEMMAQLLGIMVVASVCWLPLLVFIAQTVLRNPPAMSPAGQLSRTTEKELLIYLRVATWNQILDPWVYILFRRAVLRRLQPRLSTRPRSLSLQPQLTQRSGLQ
protocol.summary: TXA2 receptor antagonism, measured by the displacement of [3H]SQ29,548 from the PGH-2/TXA-2 receptor on human platelets
Assay type: functional
pIC50: −log10 of the molar value.
measurement.kind: pIC50

| substance.smiles | pIC50 |
| --- | --- |
| O=C(O)CCCCO/N=C(\c1ccnnc1)c1cccc(C(F)(F)F)c1 | 5.74 |

(1) O=C(O)CCCCO/N=C(/c1cccc(C(F)(F)F)c1)c1cnccn1
(2) O=C(O)CCCCCO/N=C(/c1ccccc1)c1cncnc1
**Q:** Looking only at measured pIC50, which entry is lower, 1 or 2 ? Return value: the label identifying the chosen record.
**A:** 2
